These measurements were taken from patent US20030224390A1.

Biological target: T1, estrogen receptor (ER) α as a carboxy-terminal fusion to the Gal4 activation domain (yeast, UniProt P03372 1-595, limits assumed)
T1 sequence (looked up): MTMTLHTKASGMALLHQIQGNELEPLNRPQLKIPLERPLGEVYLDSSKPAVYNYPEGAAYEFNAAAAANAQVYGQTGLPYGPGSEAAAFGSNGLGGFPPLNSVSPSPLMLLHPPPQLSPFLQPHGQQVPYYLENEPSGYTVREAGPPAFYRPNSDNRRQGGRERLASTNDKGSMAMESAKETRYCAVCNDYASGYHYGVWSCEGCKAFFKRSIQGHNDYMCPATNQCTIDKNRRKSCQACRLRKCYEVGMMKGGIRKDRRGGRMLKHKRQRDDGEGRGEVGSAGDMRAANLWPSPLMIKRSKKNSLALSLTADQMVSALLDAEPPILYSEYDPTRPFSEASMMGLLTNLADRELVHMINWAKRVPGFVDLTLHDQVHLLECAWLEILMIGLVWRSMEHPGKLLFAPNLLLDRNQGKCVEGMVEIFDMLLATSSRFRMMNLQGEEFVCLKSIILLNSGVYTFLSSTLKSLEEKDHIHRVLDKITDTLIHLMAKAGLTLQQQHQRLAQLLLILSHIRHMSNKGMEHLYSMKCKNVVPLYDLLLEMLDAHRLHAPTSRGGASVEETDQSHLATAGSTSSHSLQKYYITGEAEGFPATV
Assay: cell-based or functional assay
Recorded fold induction of β-galactosidase by estradiol, yeast two-hybrid values for a group of binders are listed next.
The reply should be a number in fold, with the unit left off.

// field: fold induction of β-galactosidase by estradiol, yeast two-hybrid; key: B4F6 (peptide) MKLLSSIEQACDICRLKKLKCSKEKPKCAKCLKNNWECRYSPKTKRSPLTRAHLTEVESRLERLEQLFLLIFPREDLDMILKMDSLQDIKALLTGLFVQDNVNKDAVTDRLASVETDMPLTLRQHRISATSSSEESSNKGQRQLTVSEFSGVPILHMLLMLPSSLDLQPS ; value = 5
